test: Binding to serum proteins (incubation in human serum, Sephadex G-50 size exclusion chromatography); type: in vitro ADME; settings: radiolabeled peptide (111In where no radiometal named), 37 °C, 500 pmol/mL, 24 h after incubation, Sephadex G-50, γ-counter, n = 2
Where a SMILES comes first, the peptide text is derived from it. [ ]: non-standard residue; d: D form. The star is where a group is joined. DOTA = O=C(O)CN1CCN(CC(=O)O)CCN(CC(=O)*)CCN(CC(=O)O)CC1; 1Nal = N[C@@H](Cc1cccc2ccccc12)C(=O)O; NMeNle = CCCC[C@H](NC)C(=O)O
Recorded Binding to Serum Proteins (%) values for a group of compounds are listed next.
State the answer as a number, implicitly in %.

Q: What measured Binding to Serum Proteins (%) goes with CCCC[C@@H](C(=O)N[C@@H](CC(=O)O)C(=O)N(C)[C@@H](Cc1cccc2ccccc12)C(N)=O)N(C)C(=O)[C@H](Cc1c[nH]c2ccccc12)NC(=O)CNC(=O)[C@H](Cc1ccc(O)cc1)NC(=O)[C@H](C)NC(=O)[C@@H](CCC(=O)O)NC(=O)CN1CCN(CC(=O)O)CCN(CC(=O)O)CCN(CC(=O)O)CC1 [DOTA-[(N-Me)1Nal^8]MGS5] ?
Result: 39.8

Q: What measured Binding to Serum Proteins (%) goes with CCCC[C@@H](C(=O)N[C@@H](CC(=O)O)C(=O)N[C@@H](Cc1ccccc1)C(N)=O)N(C)C(=O)[C@H](Cc1c[nH]c2ccccc12)NC(=O)CNC(=O)[C@H](Cc1ccc(O)cc1)NC(=O)[C@H](C)NC(=O)[C@@H](CCC(=O)O)NC(=O)CN1CCN(CC(=O)O)CCN(CC(=O)O)CCN(CC(=O)O)CC1 [DOTA-[Phe^8]MGS5] ({DOTA}-[dE]AYGW[NMeNle]DF-NH2) ?
Result: 20.2

Q: What measured Binding to Serum Proteins (%) goes with CCCC[C@@H](C(=O)N[C@@H](CC(=O)O)C(=O)N[C@@H](Cc1ccc2ccccc2c1)C(N)=O)N(C)C(=O)[C@H](Cc1c[nH]c2ccccc12)NC(=O)CNC(=O)[C@H](Cc1ccc(O)cc1)NC(=O)[C@H](C)NC(=O)[C@@H](CCC(=O)O)NC(=O)CN1CCN(CC(=O)O)CCN(CC(=O)O)CCN(CC(=O)O)CC1 [DOTA-[2Nal^8]MGS5] ?
Result: 34.6

Q: What measured Binding to Serum Proteins (%) goes with CCCC[C@@H](C(=O)N[C@@H](CC(=O)O)C(=O)N[C@@H](Cc1cccc2ccccc12)C(=O)NC)N(C)C(=O)[C@H](Cc1c[nH]c2ccccc12)NC(=O)CNC(=O)[C@H](Cc1ccc(O)cc1)NC(=O)[C@H](C)NC(=O)[C@@H](CCC(=O)O)NC(=O)CN1CCN(CC(=O)O)CCN(CC(=O)O)CCN(CC(=O)O)CC1 [DOTA-MGS5[NHCH3]] ?
Result: 40.9

Q: What measured Binding to Serum Proteins (%) goes with CCCC[C@@H](C(=O)N[C@@H](CC(=O)O)C(=O)N[C@@H](Cc1ccccc1)C(N)=O)N(C)C(=O)[C@H](Cc1c[nH]c2ccccc12)NC(=O)CNC(=O)[C@H](Cc1ccc(O)cc1)NC(=O)[C@H](C)NC(=O)[C@@H](CCC(=O)O)NC(=O)CN1CCN(CC(=O)O)CCN(CC(=O)O)CCN(CC(=O)O)CC1 [[^111In]In-DOTA-[Phe^8]MGS5] [metal not drawn] ({DOTA}-[dE]AYGW[NMeNle]DF-NH2) ?
Result: 20

Note: attention shifts to another entry.
Q: What measured Binding to Serum Proteins (%) goes with CCCC[C@@H](C(=O)N[C@@H](CC(=O)O)C(=O)N[C@@H](Cc1cccc2ccccc12)C(N)=O)N(C)C(=O)[C@H](Cc1c[nH]c2ccccc12)NC(=O)CNC(=O)[C@H](Cc1ccc(O)cc1)NC(=O)[C@H](C)NC(=O)[C@@H](CCCCN)NC(=O)CN1CCN(CC(=O)O)CCN(CC(=O)O)CCN(CC(=O)O)CC1 [DOTA-[DLys^1]MGS5] ({DOTA}-[dK]AYGW[NMeNle]D[1Nal]-NH2) ?
Result: 27.8
